systemUnderTest: human leukocyte elastase (HLE) (Homo sapiens, UniProt P08246)
Sequence (P08246 30-267): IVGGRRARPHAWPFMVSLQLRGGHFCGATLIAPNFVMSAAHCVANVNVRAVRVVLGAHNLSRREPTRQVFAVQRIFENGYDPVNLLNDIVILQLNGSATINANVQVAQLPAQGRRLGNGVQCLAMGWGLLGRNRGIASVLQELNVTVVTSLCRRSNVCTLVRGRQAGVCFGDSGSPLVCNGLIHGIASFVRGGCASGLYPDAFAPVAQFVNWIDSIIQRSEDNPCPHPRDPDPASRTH
assayOverview: Inactivation of human leukocyte elastase, progress curve method
Assay type: biochemical
testConditions: Table 6, heterocyclic sulfides 53-69
quantityName: kinact/KI (M⁻¹ s⁻¹)
Give bare numbers, in M⁻¹ s⁻¹.

Answered examples (8):
compound="CC(C)CC1C(=O)N(CSc2nnc(-c3ccccc3)o2)S(=O)(=O)N1Cc1ccccc1 (centres unmarked)" quantityname=kinact/KI measured=168000
compound="CC(C)CC1C(=O)N(CSc2nc(-c3ccccc3)c(-c3ccccc3)o2)S(=O)(=O)N1C (centres unmarked)" quantityname=kinact/KI measured=1540
compound="CC(C)CC1C(=O)N(CSc2nc3ccccc3o2)S(=O)(=O)N1Cc1ccccc1 (centres unmarked)" quantityname=kinact/KI measured=174000
compound="CC(C)CC1C(=O)N(CSc2nc(-c3ccccc3)no2)S(=O)(=O)N1Cc1ccccc1 (centres unmarked)" quantityname=kinact/KI measured=67800
compound="CC(C)CC1C(=O)N(CSc2nnc(-c3ccccc3)o2)S(=O)(=O)N1C (centres unmarked)" quantityname=kinact/KI measured=25300
compound="CC(C)CC1C(=O)N(CSc2nc(-c3ccccc3)no2)S(=O)(=O)N1C (centres unmarked)" quantityname=kinact/KI measured=153000
compound="CC(C)CC1C(=O)N(CSc2nc3ccccc3o2)S(=O)(=O)N1C (centres unmarked)" quantityname=kinact/KI measured=80600
compound="CC(C)CC1C(=O)N(CSc2nc3ccccc3s2)S(=O)(=O)N1C (centres unmarked)" quantityname=kinact/KI measured=67300

Quick one: give me kinact/KI for each item below, same order please.
1. CC(C)CC1C(=O)N(CSc2nc3ccccc3s2)S(=O)(=O)N1Cc1ccccc1 (centres unmarked)
2. CC(C)CC1C(=O)N(CSc2nc3cc(-c4ccccc4)ccc3o2)S(=O)(=O)N1C (centres unmarked)
3. CC(C)CC1C(=O)N(CSc2nc(-c3ccccc3)c(-c3ccccc3)o2)S(=O)(=O)N1Cc1ccccc1 (centres unmarked)

Reply:
[22400, 22600, 560]

----------
systemUnderTest: Human Leukocyte Proteinase 3 (PR 3) (Homo sapiens, UniProt P24158)
Sequence (P24158 28-248): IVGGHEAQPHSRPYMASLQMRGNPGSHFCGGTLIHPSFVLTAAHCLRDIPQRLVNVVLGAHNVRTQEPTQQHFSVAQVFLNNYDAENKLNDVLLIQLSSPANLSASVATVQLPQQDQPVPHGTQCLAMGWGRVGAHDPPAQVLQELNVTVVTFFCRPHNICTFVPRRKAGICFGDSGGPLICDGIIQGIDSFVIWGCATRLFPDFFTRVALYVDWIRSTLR
assayOverview: Inactivation of proteinase 3, progress curve method
Format: biochemical
testConditions: Table 5, sulfonamides 31-49
For each of the compounds below, state its kinact/KI.
Numbers only, in M⁻¹ s⁻¹.

Answered examples (3):
compound="CC(C)CC1C(=O)N(CN(C(=O)CNC(=O)OCc2ccccc2)S(C)(=O)=O)S(=O)(=O)N1Cc1ccccc1 (centres unmarked) [Compound 45]" measured=30100
compound="CCOC(=O)CNC(=O)N(CN1C(=O)C(CC(C)C)N(Cc2ccccc2)S1(=O)=O)S(C)(=O)=O (centres unmarked) [Compound 48]" measured=5190
compound="CC(C)CC1C(=O)N(CN(C(=O)Cc2ccccc2)S(C)(=O)=O)S(=O)(=O)N1C (centres unmarked) [Compound 40]" measured=10100

Quick one: give me kinact/KI for each item below, same order please.
1. CC(C)CC1C(=O)N(CN(C(=O)CNC(=O)OCc2ccccc2)S(C)(=O)=O)S(=O)(=O)N1C (centres unmarked) [Compound 43]
2. CC(C)CC1C(=O)N(CN(C(=O)CNC(=O)OC(C)(C)C)S(C)(=O)=O)S(=O)(=O)N1C (centres unmarked) [Compound 42]

Reply:
27400
27400
